Value source: patent US20220112288A1

# Tested target: T1, human CD4 on cells (SKW3 cells; human PBMCs) (human, UniProt P01730 26-458)
# T1 construct: whole, on cells; SKW3 CD4 knockout cells served as the negative cell line; also called hCD4
# Assay details: FACS binning on SKW3 cells pre-incubated with supernatant; competitor RPA-T4-PE-Dazzle 594, its signal read; background 783, max binding 15000
Reported SKW3 FACS Binning RPA-T4-PE-Dazzle 594 by item:

Binder: 75110_07B16A (antibody, IgG1, V domains shown, Tested as non-clonal AlivaMab Mouse Kappa hybridoma supernatant: human variable domains and human kappa, mouse Fc) VH: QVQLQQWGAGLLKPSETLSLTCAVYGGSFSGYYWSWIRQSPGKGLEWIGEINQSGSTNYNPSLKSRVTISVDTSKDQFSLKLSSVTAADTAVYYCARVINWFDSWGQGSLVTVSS VL: DIQMTQSPSSVSASVGDRVTITCRASQGISSWLAWYQQKPGKAPKLLIYDASSFQSGVPSRFSGSGSGTDFTLTISSLQTDDFATYYCQQANSFPYTFGQGTKLEIK
SKW3 FACS Binning RPA-T4-PE-Dazzle 594: 20600
--
Binder: 75110_14P05A (antibody, V domains shown, Tested as non-clonal AlivaMab Mouse Kappa hybridoma supernatant: human variable domains and human kappa, mouse Fc) VH: EVQLVESGGGLVQPGGSLRLSCAASGFTFSSYDVHWVRQATGKGLEWVSTIGTAGDTYYPGSVKGRFTISRENAKNSLYLQMNSLRAGDTAVYYCARGGFYYYGMDVWGQGTTVTVSS VL: EIVLTQSPGTLSLSPGERATLSCRASQSVSSSYLAWYQQKPGQTPRLLIYGASSRATGIPDRFSGSGSGTDFTLTISRLEPEDFAVFYCQQSGSSPFTFGPGTKVDVK
SKW3 FACS Binning RPA-T4-PE-Dazzle 594: 20300
--
Binder: 75110_01G11A (antibody, IgG1, V domains shown, Tested as non-clonal AlivaMab Mouse Kappa hybridoma supernatant: human variable domains and human kappa, mouse Fc) VH: EVQLVESGGGLVQPGGSLRLSCAASGFTFSSYDMHWVRQATGKGLEWVSTIGTAGDTYYPGSVKGRFTISRENARNSLFLQMNSLRAGDTAVYYCARGGDYYYGMDVWGQGTTVTVSS VL: EIVLTQSPGTLSLFPGERATLSCRASQNTYSSYLAWYQQKPGQAPRLLIYGASNRATGIPDRFSGSGSGTDFTLTISRLEPEDFAVYYCQQHGTSPFTFGPGTKVDIK
SKW3 FACS Binning RPA-T4-PE-Dazzle 594: 2160
--
Binder: 75110_13C13A (antibody, IgG1, V domains shown, Tested as non-clonal AlivaMab Mouse Kappa hybridoma supernatant: human variable domains and human kappa, mouse Fc) VH: QVQLQQWGAGLLKPSETLSLTCAVSGGSFSGYYWSWIRQPPGKGLEWIGEINHSGSTNCNPSLKSRVTISVDTSKNQFSLKLSSVTAADTAMYYCARVLNFFDYWGQGTLVTVSS VL: DIQMTQTPSSVSASVGDRVTITCRASPGISNWLAWYQQKPGKAPELLIYAASSLQSGVPSRFSGSGSGTDFTLTISSLQPEDFATYFCQQANSFPLTFGGGTKVESK
SKW3 FACS Binning RPA-T4-PE-Dazzle 594: 20800
--
Binder: 75110_13P22A (antibody, IgG1, V domains shown, Tested as non-clonal AlivaMab Mouse Kappa hybridoma supernatant: human variable domains and human kappa, mouse Fc) VH: QVQLQQWGAGLLKPSETLSLTCAAYGGSFSGYYWSWIRQSPGKGLEWIGEINQSGNTNYNPSLKSRVTISADTSKNQFSLKLSSVTAADTAVYYCARVLNWFDYWGQGILVTVSS VL: DIQMTQSPSSVSASVGDRVTITCRASQGISDWLAWYQQKSGKAPDLLIFAASSLQSGVPSRFSGSGSGTDFTLTISSLQPEDFATYYCQQANSFPYTFGQGTKLEIK
SKW3 FACS Binning RPA-T4-PE-Dazzle 594: 19000
--
Binder: 75110_13P21A (antibody, IgG1, V domains shown, Tested as non-clonal AlivaMab Mouse Kappa hybridoma supernatant: human variable domains and human kappa, mouse Fc) VH: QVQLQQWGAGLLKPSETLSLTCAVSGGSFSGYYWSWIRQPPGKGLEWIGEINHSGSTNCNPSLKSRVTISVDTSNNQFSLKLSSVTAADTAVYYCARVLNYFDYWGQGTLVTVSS VL: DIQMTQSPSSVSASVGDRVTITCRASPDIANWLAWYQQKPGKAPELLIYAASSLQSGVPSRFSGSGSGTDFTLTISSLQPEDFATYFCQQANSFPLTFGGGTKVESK
SKW3 FACS Binning RPA-T4-PE-Dazzle 594: 11900
--
Binder: 75110_04G16A (antibody, V domains shown, Tested as non-clonal AlivaMab Mouse Kappa hybridoma supernatant: human variable domains and human kappa, mouse Fc) VH: QVQLQESGPGLVKPSQTLSLTCTVSGDSISSGYYYWSWIRQHPGKGLEWIGYISYSGSTYYNPSLKSRLTISVNTSKNQFSLKLSSLTAADTAVYYCARDRPSNFDAFDIWGQGTMVTVSS VL: EIVLTQSPGTLSLSPGERATLSCRASQSVGSTYLAWYQQKPGQAPRLLIYGAFSRATGIPDRFSGSGSGTDFTLTISRLEPEDFAVYYCQQYGSSPLTFGPGTKVDIK
SKW3 FACS Binning RPA-T4-PE-Dazzle 594: 13500
--
Binder: 75110_12K21A (antibody, V domains shown, Tested as non-clonal AlivaMab Mouse Kappa hybridoma supernatant: human variable domains and human kappa, mouse Fc) VH: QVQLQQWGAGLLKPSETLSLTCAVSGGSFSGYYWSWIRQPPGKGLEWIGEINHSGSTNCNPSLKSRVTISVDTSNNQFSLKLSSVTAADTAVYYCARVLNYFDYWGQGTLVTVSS VL: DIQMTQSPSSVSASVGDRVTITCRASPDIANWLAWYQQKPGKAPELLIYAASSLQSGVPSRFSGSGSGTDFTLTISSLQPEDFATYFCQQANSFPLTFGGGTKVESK
SKW3 FACS Binning RPA-T4-PE-Dazzle 594: 10900
--
Binder: 75110_01K10A (antibody, V domains shown, Tested as non-clonal AlivaMab Mouse Kappa hybridoma supernatant: human variable domains and human kappa, mouse Fc) VH: EVQLVESGGALVQPGGSLRLSCAASGFTFRNYDMHWVRQATGKGLEWVSTIGTAGDTYYPGSVKGRFTISRENAKNSLYLQMNSLRAGDTAVYYCARGGDYYYGMDVWGQGTTVTVSS VL: EIVLTQSPDTLSLSPGERATLSCRASQSLSSVYLAWYQQKPGQAPRLLIYGASSRATGIPDRFSGTGSGTDFTLTISRLEPEDFAVYYCQQYGSSPFTFGPGTKVDIK
SKW3 FACS Binning RPA-T4-PE-Dazzle 594: 1510
--
Binder: 75110_02I16A (antibody, IgG1, V domains shown, Tested as non-clonal AlivaMab Mouse Kappa hybridoma supernatant: human variable domains and human kappa, mouse Fc; also called 75110_02116A) VH: QVQLQQWGAGLLKPSETLSLTCDVYGGSFSGYYWTWIRQPPGKGLEWIGEINHSGTTNSNPSLKSRVTISVDTSKSQFSLRLSSVTAADTAVYFCTRELNWFDPWGQGTLVTVSS VL: DIQMTQSPSSVSASVGDRVTITCRASQDIANWLAWYQQKPGKAPQLLIYAASSLLGGVPSRFSGSGSGADFTLTISSLHPEDFATYYCQQANSFPYTFGQGTKLEIK
SKW3 FACS Binning RPA-T4-PE-Dazzle 594: 2590
